Taken from paper PMC10397247.

- system.name: T1, 4H3926-bA
- T1 chain: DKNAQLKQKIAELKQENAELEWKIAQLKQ
- method.summary: two-hybrid library CCNG1;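 also: natural log of median RNA to DNA barcode read ratio; higher means stronger binding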
measured.endpoint: interaction score

* DKNAQLEQEIAELEQKIAELEWKNAQLKQ [4H3112-bA] | -0.342

A. DEIAQLEQEIAELKQKIAELKWKNAQLKQ [4H112-bA]
B. DKIAQLKQEIAELKQEIAELEWENAQLEQ [4H2627-bA]
C. DENAQLKQKIAELKQKIAELKWENAQLEQ [4H1899-bA]
D. DKNAQLEQEIAELKQENAELKWEIAQLKQ [4H3162-bA]
Number of binders to sort: 4. Sort criterion: interaction score, ascending. Form entry: ranked labels (order as requested).
C, B, A, D
(C: -1.03, B: -0.308, A: 0.327, D: 1.8)
